Test system: Bacillus subtilis
Assay: Antimicrobial activity against Bacillus subtilis MTCC 441 after 24 to 48 hr by broth microdilution method
Format: functional
Measured Property: MIC (µg/mL)
One number for each entry, in µg/mL.

Use these answered entries as a reference point.
> print(dat)
                               query.smiles        test.target  result.number
1  Clc1ccc2c(c1)cc(-c1nc3cc(Br)ccc3[nH]1)c1nnnn12  Bacillus subtilis            250
2  Clc1ccc2c(c1)cc(-c1nc3cc(Cl)ccc3[nH]1)c1nnnn12  Bacillus subtilis            125

Count: 2. Required value per item: MIC.
1. COc1ccc2c(c1)cc(-c1nc3cc(C)ccc3[nH]1)c1nnnn12
2. Cc1ccc2c(c1)cc(-c1nc3ccccc3[nH]1)c1nnnn12

Response line:
[500, 100]

* * *

Test system: Escherichia coli
Assay: Antimicrobial activity against Escherichia coli MTCC 443 after 24 to 48 hr by broth microdilution method
Assay type: functional
Record form. Attribute: MIC. Fill in for each entry.
Answers are plain numbers, in µg/mL.

Use these answered entries as a reference point.
> print(dat)
                               query.smiles       test.target  unit.string  result.number
1  Cc1ccc2c(c1)cc(-c1nc3cc(Br)ccc3[nH]1)c1nnnn12  Escherichia coli        µg/mL            500
2  Cc1ccc2c(c1)cc(-c1nc3cc(Cl)ccc3[nH]1)c1nnnn12  Escherichia coli        µg/mL            250

Count: 8. Required value per item: MIC.
1. COc1ccc2c(c1)cc(-c1nc3ccccc3[nH]1)c1nnnn12
2. Cc1ccc2[nH]c(-c3cc4cc(Cl)ccc4n4nnnc34)nc2c1
3. COc1ccc2c(c1)cc(-c1nc3cc(Br)ccc3[nH]1)c1nnnn12
4. Brc1ccc2[nH]c(-c3cc4ccccc4n4nnnc34)nc2c1
5. COc1ccc2c(c1)cc(-c1nc3cc(Cl)ccc3[nH]1)c1nnnn12
6. Clc1ccc2[nH]c(-c3cc4ccccc4n4nnnc34)nc2c1
7. c1ccc2c(c1)cc(-c1nc3ccccc3[nH]1)c1nnnn12
8. Cc1ccc2c(c1)cc(-c1nc3ccccc3[nH]1)c1nnnn12

Response line:
[250, 250, 500, 100, 500, 250, 500, 100]

Count: 5. Required value per item: MIC.
1. Clc1ccc2c(c1)cc(-c1nc3ccccc3[nH]1)c1nnnn12
2. O=C(N[C@H](CO)[C@H](O)c1ccc([N+](=O)[O-])cc1)C(Cl)Cl
3. Clc1ccc2c(c1)cc(-c1nc3cc(Cl)ccc3[nH]1)c1nnnn12
4. COc1ccc2c(c1)cc(-c1nc3cc(C)ccc3[nH]1)c1nnnn12
5. CCn1cc(C(=O)O)c(=O)c2cc(F)c(N3CCNCC3)cc21

Response line:
1000
50
125
500
10

Count: 2. Required value per item: MIC.
1. Cc1ccc2c(c1)cc(-c1nc3cc(C)ccc3[nH]1)c1nnnn12
2. O=C(O)c1cn(C2CC2)c2cc(N3CCNCC3)c(F)cc2c1=O

Response line:
[250, 25]

* * *

System: Bacillus subtilis
Assay: Antimicrobial activity against Bacillus subtilis MTCC 441 after 24 to 48 hr by broth microdilution method
Format: functional
Measured Property: MIC (µg/mL)
Numbers only, in µg/mL.

Use these answered entries as a reference point.
> print(dat)
                               query.smiles  measured.property  result.number
1  COc1ccc2c(c1)cc(-c1nc3cc(Br)ccc3[nH]1)c1nnnn12                MIC            500
2  O=C(N[C@H](CO)[C@H](O)c1ccc([N+](=O)[O-])cc1)C(Cl)Cl                MIC             50

Now turn to the next compound.
Prompt line: Using the record for Cc1ccc2c(c1)cc(-c1nc3cc(Br)ccc3[nH]1)c1nnnn12 , report its MIC.
Response line: 500

* * *

Test system: Bacillus subtilis
Assay: Antimicrobial activity against Bacillus subtilis MTCC 441 after 24 to 48 hr by broth microdilution method
Assay type: functional
Measured Property: MIC (µg/mL)
Answers are plain numbers, in µg/mL.

Use these answered entries as a reference point.
> print(dat)
                               query.smiles  result.number
1  CC1(C)S[C@@H]2[C@H](NC(=O)[C@H](N)c3ccccc3)C(=O)N2[C@H]1C(=O)O            250
2   Cc1ccc2[nH]c(-c3cc4ccccc4n4nnnc34)nc2c1            250
3  COc1ccc2c(c1)cc(-c1nc3cc(Cl)ccc3[nH]1)c1nnnn12            125
4  Cc1ccc2[nH]c(-c3cc4cc(Cl)ccc4n4nnnc34)nc2c1            125

Now turn to the next molecule.
Prompt line: Using the record for c1ccc2c(c1)cc(-c1nc3ccccc3[nH]1)c1nnnn12 , report its MIC.
Response line: 200

* * *

Record form. Attribute: MIC. Fill in for each entry.
System: Escherichia coli
Test: Antimicrobial activity against Escherichia coli MTCC 443 after 24 to 48 hr by broth microdilution method
Assay type: functional
Give bare numbers, in µg/mL.

> print(dat)
                               query.smiles       test.target  result.number
1  Clc1ccc2c(c1)cc(-c1nc3cc(Br)ccc3[nH]1)c1nnnn12  Escherichia coli            250
2  CC1(C)S[C@@H]2[C@H](NC(=O)[C@H](N)c3ccccc3)C(=O)N2[C@H]1C(=O)O  Escherichia coli            100

Prompt line: Which MIC is reported with Escherichia coli for this entry: Cc1ccc2[nH]c(-c3cc4ccccc4n4nnnc34)nc2c1 ?
Response line: 125
